Catalogue of helicity readings, one per entry.
# METHOD_DESCRIPTION: circular dichroism
# CONDITIONS: 10 mM phosphate buffered saline (par. 0128, each peptide; pH given only for 22 and 25, Fig 6B), pH 7.4, ns °C
Peptide text beside a SMILES is read from it.
Answer format: numeric, % implied, no suffix.

Study these solved cases before continuing.
{"MOLECULE": "C[C@H](NC(=O)[C@H](CC(N)=O)NC(=O)[C@H](Cc1ccc(O)cc1)NC(=O)[C@H](CCC(=O)O)NC(=O)[C@H](CS)NC(=O)[C@H](CC(=O)O)NC(=O)[C@H](C)N1CC=CCCC(=O)N[C@@H]([C@@H](C)O)C(=O)N[C@@H](C)C1=O)C(=O)N[C@@H](CCCNC(=N)N)C(N)=O [Compound 22]", "MEASUREMENT_UNITS": "%", "NUMERIC_READOUT": 53}
{"MOLECULE": "CC(=O)N[C@H](C(=O)N[C@@H](C)C(=O)N[C@@H](Cc1ccc(O)cc1)C(=O)N[C@@H](CC(=O)O)C(=O)N[C@@H](CS)C(=O)N[C@@H](CCC(=O)O)C(=O)N[C@H](C(=O)N[C@@H](CC(N)=O)C(=O)N[C@@H](C)C(N)=O)C(C)C)[C@@H](C)O [Compound 24] (Ac-TAYDCEVNA-NH2)", "MEASUREMENT_UNITS": "%", "NUMERIC_READOUT": 15}

### Prompt Reported helicity, molecule CC(C)[C@H](NC(=O)[C@H](CCC(=O)O)NC(=O)[C@@H](NC(=O)[C@H](CC(=O)O)NC(=O)[C@H](Cc1ccc(O)cc1)N1CC=CCCC(=O)N[C@@H]([C@@H](C)O)C(=O)N[C@@H](C)C1=O)C(C)C)C(=O)N[C@@H](CC(N)=O)C(=O)N[C@@H](C)C(N)=O [Compound 21] : ____
### Response 16

### Prompt Reported helicity, molecule CC(C)[C@H](NC(=O)[C@H](CCC(=O)O)NC(=O)[C@H](CS)NC(=O)[C@H](CC(=O)O)NC(=O)[C@H](Cc1ccc(O)cc1)N1CC=CCCC(=O)N[C@@H]([C@@H](C)O)C(=O)N[C@@H](C)C1=O)C(=O)N[C@@H](CC(N)=O)C(=O)N[C@@H](C)C(N)=O [Compound 20] : ____
### Response 44
